// provenance: patent US10766928B2

assay: Thermodynamic solubility in PBS (pH 7.4); format: physicochemical; conditions: phosphate buffered saline, pH 7.4, Table 3; PBS pH 7.4, 24 h at 22° C.; read-out: Solubility
Non-standard residues stand in square brackets, D forms with d. Residues, ends and D or L forms follow the SMILES beside them. Aib = CC(C)(N)C(=O)O
MEASURED METRIC: solubility thermodynamic at 24 h

CC(=O)NC(C)(C)C(=O)NC(C)(C)C(=O)NC(C)(C)C(=O)NC(C)(C)C(=O)N[C@@H](Cc1c[nH]c2ccccc12)C(=O)N[C@@H](Cc1c[nH]c2ccccc12)C(=O)N[C@@H](C)C(=O)N[C@@H](Cc1c[nH]c2ccccc12)C(=O)N[C@@H](Cc1ccc(O)cc1)C(=O)N1CCC[C@H]1C(=O)N1CCC[C@H]1C(=O)N[C@H](C(=O)N[C@H](C(N)=O)C(C)C)C(C)C [Compound 78] (Ac-[Aib][Aib][Aib][Aib]WWAWYPPVV-NH2)	5 µM

Now for the compound whose solubility thermodynamic at 24 h we want.
Prompt line: Request the reported solubility thermodynamic at 24 h associated with CC(C)[C@H](NC(=O)[C@@H]1CCCN1C(=O)[C@@H]1CCCN1C(=O)[C@H](Cc1c[nH]c2ccccc12)NC(=O)[C@H](Cc1ccc(O)cc1)NC(=O)[C@H](C)NC(=O)[C@H](Cc1c[nH]c2ccccc12)NC(=O)[C@H](Cc1c[nH]c2ccccc12)NC(=O)C(C)(C)NC(=O)C(C)(C)NC(=O)C(C)(C)NC(=O)C(C)(C)N)C(=O)N[C@@H](C)C(N)=O [Compound 43] (H-[Aib][Aib][Aib][Aib]WWAYWPPVA-NH2)
Response line: 40 µM

---

test: Thermodynamic solubility in PBS (pH 7.4); type: physicochemical; details: phosphate buffered saline, pH 7.4, Table 1; PBS pH 7.4, 24 hours at 22° C., ±S.D.; read-out: Solubility (aq.)
MEASURED METRIC: solubility thermodynamic at 24 h (µM)
Write the answer as a number in µM, unit excluded.

Prompt line: Which solubility thermodynamic at 24 h is listed for Ac-SSAWWSYWPPVA-NH2 [Compound 39, reference compound] ?
Response line: 173

---

system: endosomes of Jurkat lymphocytes; test: Endosome disruption in Jurkat lymphocytes: release of carboxyfluorescein from disulfide probe Compound 2, flow cytometry; conditions: read-out: Potency (EC50); Table 1; Jurkat lymphocytes, probe Compound 2 (2.5 μM), 14 hours; 95% confidence interval in neighbouring cell
Non-standard residues stand in square brackets, D forms with d. Residues, ends and D or L forms follow the SMILES beside them. Aib = CC(C)(N)C(=O)O
Listing of recorded pEC50 by entry.
Reminder that pEC50 means the negative base-10 logarithm of the concentration expressed in mol/L.

Past entries and their recorded results:
CC(C)[C@H](NC(=O)[C@@H](NC(=O)[C@@H]1CCCN1C(=O)[C@@H]1CCCN1C(=O)[C@H](Cc1ccc(O)cc1)NC(=O)[C@H](Cc1c[nH]c2ccccc12)NC(=O)[C@H](C)NC(=O)[C@H](Cc1c[nH]c2ccccc12)NC(=O)[C@H](Cc1c[nH]c2ccccc12)NC(=O)C(C)(C)NC(=O)C(C)(C)NC(=O)C(C)(C)NC(=O)C(C)(C)N)C(C)C)C(N)=O [Compound 54] (H-[Aib][Aib][Aib][Aib]WWAWYPPVV-NH2)	5.42
CC(C)[C@H](NC(=O)[C@@H](NC(=O)[C@@H]1CCCN1C(=O)[C@@H]1CCCN1C(=O)[C@H](Cc1c[nH]c2ccccc12)NC(=O)[C@H](Cc1c[nH]c2ccccc12)NC(=O)[C@H](C)NC(=O)[C@H](Cc1ccc(O)cc1)NC(=O)[C@H](Cc1c[nH]c2ccccc12)NC(=O)C(C)(C)NC(=O)C(C)(C)NC(=O)C(C)(C)NC(=O)C(C)(C)N)C(C)C)C(N)=O [Compound 53] (H-[Aib][Aib][Aib][Aib]WYAWWPPVV-NH2)	5.15
CC(C)[C@H](NC(=O)[C@@H](NC(=O)[C@@H]1CCCN1C(=O)[C@@H]1CCCN1C(=O)[C@H](Cc1c[nH]c2ccccc12)NC(=O)[C@H](Cc1c[nH]c2ccccc12)NC(=O)[C@H](C)NC(=O)[C@H](Cc1c[nH]c2ccccc12)NC(=O)[C@H](Cc1ccc(O)cc1)NC(=O)C(C)(C)NC(=O)C(C)(C)NC(=O)C(C)(C)NC(=O)C(C)(C)N)C(C)C)C(N)=O [Compound 52] (H-[Aib][Aib][Aib][Aib]YWAWWPPVV-NH2)	5.72
CC(=O)NC(C)(C)C(=O)NC(C)(C)C(=O)NC(C)(C)C(=O)N[C@@H](Cc1c[nH]c2ccccc12)C(=O)N[C@@H](Cc1c[nH]c2ccccc12)C(=O)N[C@@H](C)C(=O)N[C@@H](Cc1ccc(O)cc1)C(=O)N[C@@H](Cc1c[nH]c2ccccc12)C(=O)N1CCC[C@H]1C(=O)N1CCC[C@H]1C(=O)N[C@H](C(=O)N[C@@H](C)C(N)=O)C(C)C [Compound 41] (Ac-[Aib][Aib][Aib]WWAYWPPVA-NH2)	5.23

Moving on to another molecule below.
Prompt line: Fill in: pEC50 of CC(=O)NC(C)(C)C(=O)NC(C)(C)C(=O)NC(C)(C)C(=O)NC(C)(C)C(=O)N[C@@H](Cc1c[nH]c2ccccc12)C(=O)N[C@@H](Cc1c[nH]c2ccccc12)C(=O)N[C@@H](C)C(=O)N[C@@H](Cc1ccc(O)cc1)C(=O)N[C@@H](Cc1c[nH]c2ccccc12)C(=O)N1CCC[C@H]1C(=O)N1CCC[C@H]1C(=O)N[C@H](C(=O)N[C@@H](C)C(N)=O)C(C)C [Compound 42] (Ac-[Aib][Aib][Aib][Aib]WWAYWPPVA-NH2) is ___
Response line: 5.28
